Target: CBL-B (Homo sapiens)
Construct: GST
Test: CBL-B TR-FRET IC50 screening (E1/E2 ubiquitination, Biotin-Ubiquitin, Anti GST-Tb donor / Streptavidin-d2 acceptor)
Type: biochemical
Conditions: second part of Table 2 (head 'Patent Cmpd No / Updated Activity'); same CBL-B TR-FRET IC50 bins A-F; read-out: Updated Activity
pIC50: −log10 of the molar value.
Recorded pIC50, one value per entry.

Molecule: Cn1cnnc1[C@@H](c1cc(F)cc(-n2cc3c(C(F)(F)F)cc(CN4CCC5(CC5)C4)cn3c2=O)c1)C1CCC1 (single isomer, unassigned)
Property: pIC50
Result: 6.00 to 6.52

Molecule: C[C@H]1CCCN(Cc2cc(C(F)(F)F)c3cn(-c4cccc(C(=C5CCC5)c5nncn5C)c4)c(=O)n3c2)C1
Property: pIC50
Result: > 7.00

Molecule: C[C@H]1CCCN(Cc2cc(C(F)(F)F)c3cn(-c4cccc([C@H](c5nncn5C)C5CC5)c4)c(=O)n3c2)C1
Property: pIC50
Result: > 7.00

Lab note: C[C@H]1CCCN(Cc2cc(C(F)(F)F)c3cn(-c4cccc([C@H](c5nncn5C)[C@H]5C[C@H](O)C5)c4)c(=O)n3c2)C1 (single isomer, unassigned) gave pIC50 of < 5.00

Lab note: CNC(=O)CCc1cc([C@H](c2nncn2C)C2CCC2)cc(-n2cc3c(C(F)(F)F)cccn3c2=O)c1 (single isomer, unassigned) gave pIC50 of < 5.00

###

Target: CBL-B (Homo sapiens, UniProt Q13191)
Construct: GST
Sequence (Q13191 whole entry): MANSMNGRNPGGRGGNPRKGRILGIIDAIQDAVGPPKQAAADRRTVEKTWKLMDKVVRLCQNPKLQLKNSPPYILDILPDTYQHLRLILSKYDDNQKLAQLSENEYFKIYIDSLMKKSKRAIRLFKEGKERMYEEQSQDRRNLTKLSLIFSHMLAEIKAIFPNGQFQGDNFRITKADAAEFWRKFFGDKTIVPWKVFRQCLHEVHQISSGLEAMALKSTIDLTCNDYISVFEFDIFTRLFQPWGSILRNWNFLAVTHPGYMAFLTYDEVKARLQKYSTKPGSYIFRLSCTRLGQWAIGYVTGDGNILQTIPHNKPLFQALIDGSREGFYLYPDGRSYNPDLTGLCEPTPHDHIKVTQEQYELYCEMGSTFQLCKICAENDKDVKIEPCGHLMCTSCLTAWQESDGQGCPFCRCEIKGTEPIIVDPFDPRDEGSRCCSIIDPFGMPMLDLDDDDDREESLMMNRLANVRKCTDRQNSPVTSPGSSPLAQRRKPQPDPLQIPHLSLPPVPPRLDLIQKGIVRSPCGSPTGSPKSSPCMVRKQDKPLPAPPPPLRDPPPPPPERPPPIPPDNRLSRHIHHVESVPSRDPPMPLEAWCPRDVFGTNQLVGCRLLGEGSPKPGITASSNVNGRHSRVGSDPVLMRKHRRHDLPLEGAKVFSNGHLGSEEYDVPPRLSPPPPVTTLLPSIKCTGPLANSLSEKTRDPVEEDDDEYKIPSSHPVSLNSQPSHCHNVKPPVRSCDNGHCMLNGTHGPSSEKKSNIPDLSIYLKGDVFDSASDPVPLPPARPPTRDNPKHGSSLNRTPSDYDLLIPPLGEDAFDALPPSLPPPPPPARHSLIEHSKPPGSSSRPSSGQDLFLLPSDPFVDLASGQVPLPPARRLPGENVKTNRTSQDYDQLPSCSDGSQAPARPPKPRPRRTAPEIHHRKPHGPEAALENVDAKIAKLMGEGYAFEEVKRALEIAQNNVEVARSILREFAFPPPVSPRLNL
Assay: CBL-B TR-FRET IC50 screening (E1/E2 ubiquitination, Biotin-Ubiquitin, Anti GST-Tb donor / Streptavidin-d2 acceptor)
Assay type: biochemical
Settings: second part of Table 2 (head 'Patent Cmpd No / Updated Activity'); same CBL-B TR-FRET IC50 bins A-F; read-out: Updated Activity
pIC50: −log10 of the molar value.
Property: pIC50

Reference set, count: 3
Compound: COC[C@H]1C[C@H]([C@H](c2cccc(-n3cc4c(C(F)(F)F)cc(CN5CCC[C@H](C)C5)cn4c3=O)c2)c2nncn2C)C1 (single isomer, unassigned)
Result: < 5.00
//
Compound: COCC(COC)[C@@H](c1cccc(-n2cc3c(C(F)(F)F)cc(CN4CCC[C@H](C)C4)cn3c2=O)c1)c1nncn1C (single isomer, unassigned)
Result: < 5.00
//
Compound: C[C@H]1CCCN(Cc2cc(C(F)(F)F)c3cn(-c4cccc([C@H](c5nncn5C)C5CNC5)c4)c(=O)n3c2)C1
Result: < 5.00

Recorded pIC50 for Cn1cnnc1[C@@H](c1cccc(-n2cc3c(C(F)(F)F)cc(CN4CCC5(CC4)CC5)cn3c2=O)c1)C1CCC1 on CBL-B (Homo sapiens, UniProt Q13191) was > 7.00

Recorded pIC50 for [2H]C([2H])(c1cc(C(F)(F)F)c2cn(-c3cccc([C@H](c4nncn4C)C4CCC4)c3)c(=O)n2c1)N1CCC[C@H](C(F)(F)F)C1 on CBL-B (Homo sapiens, UniProt Q13191) was 5.00 to 5.52

Recorded pIC50 for CN1CCC2(CCN(Cc3cc(C(F)(F)F)c4cn(-c5cccc([C@H](c6nncn6C)C6CCC6)c5)c(=O)n4c3)CC2)C1=O on CBL-B (Homo sapiens, UniProt Q13191) was > 7.00

Recorded pIC50 for [2H]C([2H])(c1cc(C(F)(F)F)c2cn(-c3cccc([C@H](c4nncn4C)C4CCC4)c3)c(=O)n2c1)N1CCC[C@H](C)C1 on CBL-B (Homo sapiens, UniProt Q13191) was > 7.00

Recorded pIC50 for CN1CC[C@@]2(CCN(Cc3cc(C(F)(F)F)c4cn(-c5cccc([C@H](c6nncn6C)C6CCC6)c5)c(=O)n4c3)C2)C1=O (single isomer, unassigned) on CBL-B (Homo sapiens, UniProt Q13191) was > 7.00

Recorded pIC50 for Cn1cnnc1[C@H](c1cc(-c2cncnc2)cc(-n2cc3c(C(F)(F)F)cccn3c2=O)c1)C1CCC1 (single isomer, unassigned) on CBL-B (Homo sapiens, UniProt Q13191) was < 5.00

Sourced from patent US20240228482A1
